Task for the reader: assign each of the following molecules its reported IC50.
target-entity: jack bean urease (Canavalia ensiformis, UniProt P07374)
Sequence (P07374 whole entry, looked up): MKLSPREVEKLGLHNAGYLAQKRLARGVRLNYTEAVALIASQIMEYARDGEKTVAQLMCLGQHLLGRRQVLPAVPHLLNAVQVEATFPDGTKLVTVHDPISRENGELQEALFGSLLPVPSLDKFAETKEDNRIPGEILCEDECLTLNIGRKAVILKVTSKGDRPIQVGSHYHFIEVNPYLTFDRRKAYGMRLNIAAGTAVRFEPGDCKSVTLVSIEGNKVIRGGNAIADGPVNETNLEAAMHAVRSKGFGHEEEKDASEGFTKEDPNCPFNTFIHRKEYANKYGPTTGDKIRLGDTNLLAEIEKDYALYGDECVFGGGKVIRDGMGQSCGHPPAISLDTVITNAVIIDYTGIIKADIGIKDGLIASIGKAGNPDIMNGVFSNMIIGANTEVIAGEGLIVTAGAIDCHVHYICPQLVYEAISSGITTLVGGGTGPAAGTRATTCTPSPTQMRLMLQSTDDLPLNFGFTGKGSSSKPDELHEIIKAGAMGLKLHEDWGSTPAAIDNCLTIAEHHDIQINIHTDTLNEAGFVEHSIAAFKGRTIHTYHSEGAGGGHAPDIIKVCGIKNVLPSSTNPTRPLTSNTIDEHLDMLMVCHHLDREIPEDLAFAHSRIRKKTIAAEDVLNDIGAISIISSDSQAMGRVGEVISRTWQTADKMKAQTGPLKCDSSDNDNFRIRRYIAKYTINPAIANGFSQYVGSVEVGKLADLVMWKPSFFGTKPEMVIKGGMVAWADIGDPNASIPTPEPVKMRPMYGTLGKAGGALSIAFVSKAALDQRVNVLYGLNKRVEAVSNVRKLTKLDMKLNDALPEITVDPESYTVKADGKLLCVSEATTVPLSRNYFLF
assay-protocol: biochemical
Assay type: biochemical
Put your answer as a value accompanied by its unit after it.

CC(C)Cc1ccc(C(C)C(=O)Nc2ccc(S(=O)(=O)Nc3ncccn3)cc2)cc1 (stereo not shown) [Conjugate 7] ... 50.2 µM
CC(C)Cc1ccc(C(C)C(=O)Nc2ccc(S(=O)(=O)Nc3nccs3)cc2)cc1 (stereo not shown) [Conjugate 6] ... 9.95 µM
CC(C)Cc1ccc(C(C)C(=O)Nc2ccc(S(=O)(=O)NC(=N)N)cc2)cc1 (stereo not shown) [Conjugate 11] ... 44.5 µM
CC(C(=O)Nc1ccc(S(=O)(=O)NC(=N)N)cc1)c1ccc(-c2ccccc2)c(F)c1 (stereo not shown) [Conjugate 19] ... 33.8 µM
Cc1ccnc(NS(=O)(=O)c2ccc(NC(=O)C(C)c3ccc(-c4ccccc4)c(F)c3)cc2)n1 (stereo not shown) [Conjugate 16] ... 17.5 µM

I have 2 molecules here; please give me IC50 for each one.
1. Cc1cc(NS(=O)(=O)c2ccc(NC(=O)C(C)c3ccc(-c4ccccc4)c(F)c3)cc2)no1 (stereo not shown) [Conjugate 17]
2. Cc1noc(NS(=O)(=O)c2ccc(NC(=O)C(C)c3ccc(-c4ccccc4)c(F)c3)cc2)c1C (stereo not shown) [Conjugate 13]

**A:**
1: 13.4 µM; 2: 35.3 µM

I have 7 molecules here; please give me IC50 for each one.
1. Cc1ccnc(NS(=O)(=O)c2ccc(NC(=O)C(C)c3ccc(CC(C)C)cc3)cc2)n1 (stereo not shown) [Conjugate 8]
2. CC(=O)NS(=O)(=O)c1ccc(NC(=O)C(C)c2ccc(-c3ccccc3)c(F)c2)cc1 (stereo not shown) [Conjugate 18]
3. CC(C(=O)Nc1ccc(S(=O)(=O)Nc2ncccn2)cc1)c1ccc(-c2ccccc2)c(F)c1 (stereo not shown) [Conjugate 15]
4. CC(C(=O)Nc1ccc(S(=O)(=O)Nc2nccs2)cc1)c1ccc(-c2ccccc2)c(F)c1 (stereo not shown) [Conjugate 14]
5. Cc1cc(NS(=O)(=O)c2ccc(NC(=O)C(C)c3ccc(CC(C)C)cc3)cc2)no1 (stereo not shown) [Conjugate 9]
6. CC(C(=O)Nc1ccc(S(N)(=O)=O)cc1)c1ccc(-c2ccccc2)c(F)c1 (stereo not shown) [Conjugate 12]
7. CC(C)Cc1ccc(C(C)C(=O)Nc2ccc(S(N)(=O)=O)cc2)cc1 (stereo not shown) [Conjugate 4]

**A:**
1. 12.4 µM
2. 14.8 µM
3. 16.7 µM
4. 63.4 µM
5. 39.9 µM
6. 24.9 µM
7. 14.3 µM

I have 2 molecules here; please give me IC50 for each one.
1. Cc1noc(NS(=O)(=O)c2ccc(NC(=O)C(C)c3ccc(CC(C)C)cc3)cc2)c1C (stereo not shown) [Conjugate 5]
2. CC(=O)NS(=O)(=O)c1ccc(NC(=O)C(C)c2ccc(CC(C)C)cc2)cc1 (stereo not shown) [Conjugate 10]

**A:**
1. 23.3 µM
2. 10.3 µM
